# Tested on: caudate lesioned mouse
# Method Notes: caudate lesioned mouse test (anti-parkinson activity)
# Assay type: in vivo
# Measurement Context: Mus musculus; dose 0.208 m. mole/kg; 24 h post-drug; read-out: No. Mice Affected/No. Mice Tested, 24 h (converted)
Observation Type: responders at 208 µmol/kg (%)
One number for each entry, in %.

// below: answered compounds
| Compound | Unit String | Recorded Measurement |
| --- | --- | --- |
| CCCCCCCCCCCCCCCC(=O)Oc1ccc2c(c1OC(=O)CCCCCCCCCCCCCCC)-c1cccc3c1C(C2)N(C)CC3 (stereo not shown) [Ref. 1D, reference compound] | % | 0 |
| CN1CCc2cccc3c2C1Cc1ccc(OC(=O)C(C)(C)C)c(OC(=O)C(C)(C)C)c1-3 (stereo not shown) [Ref. 1C, reference compound] | % | 0 |
| CCCCC(=O)Oc1ccc2c(c1OC(=O)CCCC)-c1cccc3c1C(C2)N(C)CC3 (stereo not shown) [Ref. 2A, reference compound] | % | 0 |

Proceeding to the next compound to report its responders at 208 µmol/kg.
input: # responders at 208 µmol/kg lookup, item CCCN1CCc2cccc3c2C1Cc1ccc(OC(=O)c2ccc(Cl)cc2)c(OC(=O)c2ccc(Cl)cc2)c1-3 (stereo not shown)
output: 33.3
